# assaySummary: Population PK model of probenecid (plasma data)
# Type: in vivo, human
# conditionParameters: both sexes, human, plasma, oral, 500 mg; population estimate (RSE%)
reportedEndpoint: clearance (mL/min)
Numbers only, in mL/min.

Retrieve clearance measured for CCCN(CCC)S(=O)(=O)c1ccc(C(=O)O)cc1 [PROB, probenecid] and print it. 15.8

###

# assaySummary: Population PK model of rifampicin (plasma data)
# Format: in vivo, human
# conditionParameters: both sexes, human, plasma, oral, 600 mg; population estimate (RSE%); read-out: CL RIF (converted)
reportedEndpoint: clearance (mL/min)
Answers are plain numbers, in mL/min.

Retrieve clearance measured for CO[C@H]1/C=C/O[C@@]2(C)Oc3c(C)c(O)c4c(O)c(c(/C=N/N5CCN(C)CC5)c(O)c4c3C2=O)NC(=O)/C(C)=C\C=C\[C@H](C)[C@H](O)[C@@H](C)[C@@H](O)[C@@H](C)[C@H](OC(C)=O)[C@@H]1C [RIF, rifampicin] and print it. 112

Measured values drawn from paper PMC12641067 for this set.
